I'd appreciate it if you could supply EC50 (read off the curve) values for the items below.
# target_entity: Human CD47-His protein (human, UniProt Q08722 19-136)
# Sequence (Q08722 other isoform, or with tags, fused parts or gaps limits assumed): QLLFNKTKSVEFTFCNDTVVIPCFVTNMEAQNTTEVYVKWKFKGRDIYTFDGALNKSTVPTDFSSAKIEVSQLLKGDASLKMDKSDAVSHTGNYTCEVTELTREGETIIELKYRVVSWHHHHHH
# measurement_notes: ELISA on coated human CD47-His, anti-human IgG HRP, OD450

Challenge: Return EC50 (read off the curve) for the following binder: Hu34-39-PE (antibody, IgG4, V domains shown, also called humanized anti-CD47 antibody Hu34-39-PE) VH: QVQLQESGPGLVKPSQTLSLTCKASGYTFTNYWITWVKQRPGQGLEWIGDITPGRGETNYNQKFKGRVTLTVDISASTAYMELSSLRSEDTAVYYCSRWGLRRGDYWGQGTSVTVSS VL: EIVLTQSPGTLSLSPGERATLSCRASSSVSSSYLNWYQQKSGASPKLWIYSTSNLASGVPGRFSGSGSGTSYSLTISSVEAEDAATYYCQQYSGYPLTFGAGTKLEVK
Response given: ~0.08 nM

Challenge: Could you please provide reported EC50 (read off the curve) for Hu58A-14-PE (antibody, IgG4, V domains shown, also called humanized anti-CD47 antibody Hu58A-14-PE) VH: EVQLLESGGGLVQPGGSLRLSCAASGFIFSRFGMAWVRQTPDKRLEWVATISSGGSYTYYPDSVKGRLTISRDNAKTTLYLQMRSLKSEDTAMYYCARQGLLDYLYALDYWGQGTAVTVSS VL: DIQMTQSPSSVSASIGDRVTITCKASQDINSFLAWFQQKPGKSPRPLIYRAYRLVDGVPSRFSGVGSGQDYSLTISSLDYEDLGIYYCQQYVEFPPTFGAGTMLELK ? Thanks!
Response given: ~0.08 nM

Challenge: # return recorded EC50 (read off the curve) for entry Hu26T-31-PE (antibody, IgG4, V domains shown, also called humanized anti-CD47 antibody Hu26T-31-PE) VH: QVQLVQSGAEVKKPGASVKVSCKASGYTFTDYYMNWVRQAPGQGLEWIGRIYPGSGLTYYNAKFKGRATVTADKSTSTVYMELSSLRSEDTAVYYCARTSYGSSFPHVWGQGTTVTVSS VL: DIQMTQSPSSLSASVGDRVTITCKSSQSLLNVNDQKNYLAWYQQKPGKAPKLLIYFASTRESGVPSRFSGSGSGTDFTLTISSLQPEDFATYYCQQHYSTPLTFGQGTKLEIK
Response given: ~0.1 nM

Challenge: Give EC50 (read off the curve) for AB6.12-IgG4P (antibody, V domains shown, Anti-CD47 control antibody from WO2013/119714; also called AB06.12-4P; AB06.12-P) VH: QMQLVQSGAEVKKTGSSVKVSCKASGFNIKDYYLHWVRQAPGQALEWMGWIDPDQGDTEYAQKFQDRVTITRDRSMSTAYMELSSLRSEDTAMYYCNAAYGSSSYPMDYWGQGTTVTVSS VL: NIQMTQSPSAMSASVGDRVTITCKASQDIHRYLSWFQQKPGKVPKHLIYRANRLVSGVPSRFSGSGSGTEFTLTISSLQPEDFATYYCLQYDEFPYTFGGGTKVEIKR
Response given: ~0.08 nM
